Sourced from the Kinase Knowledgebase extract (Sharma et al. 2016)

molecular target: MAPK14 (human); assay: Inhibition of LPS Stimulated TNF Production by U937 Cells; conditions: concentration not given here
Test Readout: inhibition (%)
Give the number; % is assumed, so skip it.

*Q* Name the recorded inhibition of COc1ccc(C)cc1S(=O)(=O)N[C@@H](C)c1[nH]nc(-c2ccc(F)cc2)c1-c1ccncc1 , assay system MAPK14 (human).
*A* 76

*Q* # lookup: MAPK14 (human) inhibition, key = C[C@H](NC(=O)NCCCc1[nH]nc(-c2ccc(F)cc2)c1-c1ccncc1)c1ccccc1
*A* 37

*Q* GET inhibition | system: MAPK14 (human) | item: O=C(NCc1[nH]nc(-c2ccc(F)cc2)c1-c1ccncc1)c1ccc(F)cc1F
*A* 54

*Q* For MAPK14 (human), give inhibition of the listed compound: O=C(NCc1[nH]nc(-c2ccc(F)cc2)c1-c1ccncc1)C(c1ccccc1)c1ccccc1
*A* 78

*Q* Report inhibition from MAPK14 (human) testing of O=S(=O)(NCCc1[nH]nc(-c2ccc(F)cc2)c1-c1ccncc1)c1ccc(Cl)cc1Cl
*A* 31

*Q* Fetch value of inhibition on MAPK14 (human) for C[C@@H](NS(=O)(=O)c1ccc(-c2ccccn2)s1)c1[nH]nc(-c2ccc(F)cc2)c1-c1ccncc1 .
*A* 68

*Q* Write inhibition of Cc1c(-c2ccncc2)c(-c2ccc(F)cc2)nn1CC(=O)NC1CCc2ccccc21 (configuration not stated) ; system used: MAPK14 (human)
*A* 25

*Q* Please report inhibition with MAPK14 (human) for item O=C(NCc1[nH]nc(-c2ccc(F)cc2)c1-c1ccncc1)c1cccc(Cl)c1 .
*A* 32

*Q* GET inhibition where system = MAPK14 (human) and item = COc1ccc(Cl)cc1S(=O)(=O)NCCCc1[nH]nc(-c2ccc(F)cc2)c1-c1ccncc1
*A* 64

*Q* Print MAPK14 (human) inhibition for O=C(NCc1[nH]nc(-c2ccc(F)cc2)c1-c1ccncc1)Nc1ccccc1OC(F)(F)F .
*A* 25

*Q* Tell me inhibition of CNC(=O)NCCc1[nH]nc(-c2ccc(F)cc2)c1-c1ccncc1 when tested on MAPK14 (human).
*A* 68

*Q* // fetch inhibition for CNC(=O)N[C@H](C)c1[nH]nc(-c2ccc(F)cc2)c1-c1ccncc1 ; system: MAPK14 (human)
*A* 50

*Q* State measured inhibition of the compound CCOC(=O)C(NC(=O)NCCc1[nH]nc(-c2ccc(F)cc2)c1-c1ccncc1)C(C)C (configuration not stated) with MAPK14 (human).
*A* 36

*Q* Enter recorded inhibition with MAPK14 (human) for C[C@@H](NC(=O)N1CCOCC1)c1[nH]nc(-c2ccc(F)cc2)c1-c1ccncc1 here.
*A* 30

*Q* Specify inhibition for C[C@H](NC(=O)c1ccc(F)cc1C(F)(F)F)c1[nH]nc(-c2ccc(F)cc2)c1-c1ccncc1 , system MAPK14 (human).
*A* 58

*Q* Give MAPK14 (human) inhibition for the following compound: O=S(=O)(NCCCc1[nH]nc(-c2ccc(F)cc2)c1-c1ccncc1)c1ccccc1
*A* 57

*Q* Please report inhibition with MAPK14 (human) for item CC1(C)[C@H]2CC[C@@]1(CS(=O)(=O)NCCc1[nH]nc(-c3ccc(F)cc3)c1-c1ccncc1)C(=O)C2 .
*A* 26

*Q* Answer with inhibition of CC(C)OC(=O)N[C@H](C)c1[nH]nc(-c2ccc(F)cc2)c1-c1ccncc1 measured for MAPK14 (human).
*A* 45

*Q* State recorded inhibition with MAPK14 (human), entry O=S(=O)(NCc1[nH]nc(-c2ccc(F)cc2)c1-c1ccncc1)c1ccc(F)c(Cl)c1 , no comment.
*A* 78

*Q* Under MAPK14 (human): report inhibition of COc1ccc(OC)c(S(=O)(=O)N[C@H](C)c2[nH]nc(-c3ccc(F)cc3)c2-c2ccncc2)c1 .
*A* 81

*Q* Fill in inhibition for O=C(NCCc1[nH]nc(-c2ccc(F)cc2)c1-c1ccncc1)Nc1ccc(F)cc1 tested with MAPK14 (human).
*A* 39

*Q* Please report the measured inhibition for CC1(C)[C@@H]2CC[C@]1(CCS(=O)(=O)NCc1[nH]nc(-c3ccc(F)cc3)c1-c1ccncc1)C(=O)C2 tested on MAPK14 (human).
*A* 1

*Q* // fetch inhibition for C[C@@H](NC(=O)c1cccc(C#N)c1)c1[nH]nc(-c2ccc(F)cc2)c1-c1ccncc1 ; system: MAPK14 (human)
*A* 37

*Q* Give inhibition; test system MAPK14 (human); compound C[C@H](NC(=O)c1ccccc1F)c1[nH]nc(-c2ccc(F)cc2)c1-c1ccncc1
*A* 31

*Q* Give reported inhibition for COCC(=O)N[C@H](C)c1[nH]nc(-c2ccc(F)cc2)c1-c1ccncc1 (MAPK14 (human))
*A* 46

*Q* Please report the measured inhibition for Cc1ccc([C@@H](C)NC(=O)Cn2nc(-c3ccc(F)cc3)c(-c3ccncc3)c2C)cc1 tested on MAPK14 (human).
*A* 45

*Q* Give inhibition for this entry on MAPK14 (human): COc1ccccc1C(=O)N[C@H](Cc1ccccc1)c1[nH]nc(-c2ccc(F)cc2)c1-c1ccncc1
*A* 2

*Q* # lookup: MAPK14 (human) inhibition, key = CCOC(=O)C(CCSC)NC(=O)NCCc1[nH]nc(-c2ccc(F)cc2)c1-c1ccncc1 (configuration not stated)
*A* 54

*Q* Consider the compound O=C(N[C@H](Cc1ccccc1)c1[nH]nc(-c2ccc(F)cc2)c1-c1ccncc1)C1CCCC1 tested on MAPK14 (human); state its inhibition.
*A* 3

*Q* Param request: inhibition | system MAPK14 (human) | item C[C@H](NC(=O)N1CCOCC1)c1[nH]nc(-c2ccc(F)cc2)c1-c1ccncc1
*A* 37

*Q* Give the observed inhibition of C[C@H](NC(=O)c1ccc(C(F)(F)F)cc1F)c1[nH]nc(-c2ccc(F)cc2)c1-c1ccncc1 for MAPK14 (human).
*A* 33

*Q* Name the recorded inhibition of C[C@@H](NS(=O)(=O)c1cccc2ccccc12)c1[nH]nc(-c2ccc(F)cc2)c1-c1ccncc1 , assay system MAPK14 (human).
*A* 58

*Q* GET inhibition where system = MAPK14 (human) and item = O=C(NCCc1[nH]nc(-c2ccc(F)cc2)c1-c1ccncc1)c1cc(F)cc(F)c1
*A* 29

*Q* Please tell me the measured inhibition for Cc1c(-c2ccncc2)c(-c2ccc(F)cc2)nn1CC(=O)NCCc1cccs1 ; system: MAPK14 (human).
*A* 36

*Q* Write down the reported inhibition (system: MAPK14 (human)) of Cc1ccccc1C(=O)NCCc1[nH]nc(-c2ccc(F)cc2)c1-c1ccncc1
*A* 9

*Q* Please indicate recorded inhibition of C[C@@H](NC(=O)c1cccs1)c1[nH]nc(-c2ccc(F)cc2)c1-c1ccncc1 measured with MAPK14 (human).
*A* 70

*Q* Enter recorded inhibition with MAPK14 (human) for O=C(NCCc1[nH]nc(-c2ccc(F)cc2)c1-c1ccncc1)Nc1ccc(Br)cc1 here.
*A* 29
